# System: P388 leukemia ip, CD2F1 mice, survival T/C
# experiment.description: NCI In Vivo Anticancer Drug Screen. Data for tumor model P388 Leukemia (intraperitoneal) in CD2F1 (CDF1) mice
# setup.conditions: endpoint: median survival time; dose: 400.0 mg/kg/injection; schedule: Q04DX002 (ip); vehicle: Klucel (hydroxypropylcellulose) (HPC); higher = longer survival
Toxic doses and inconclusive results are not listed.
measured.attribute: T/C

• c1ccc2c3c(ccc2c1)OP1(=NP(N2CC2)(N2CC2)=NP(N2CC2)(N2CC2)=N1)Oc1ccc2ccccc2c1-3 = 108 % of control
• COc1ccc(C2=C(Cl)C(=O)N(c3ccccc3Cl)C(=O)C2(Cl)Cl)cc1 = 113 % of control
• COc1cc2c[n+](C)c3c4cc5c(cc4ccc3c2cc1OC)OCO5 = 87 % of control
• CCCCCC(/C=C/C1C(O[Si](C)(C)C(C)(C)C)CC(N(C)C)C1(C/C=C/CCCC(=O)OC)S(=O)(=O)c1ccccc1)O[Si](C)(C)C(C)(C)C (centres undefined) = 89 % of control

* * *

# Tested on: P388 leukemia ip, CD2F1 mice, survival T/C
# experiment.description: NCI In Vivo Anticancer Drug Screen. Data for tumor model P388 Leukemia (intraperitoneal) in CD2F1 (CDF1) mice
# setup.conditions: endpoint: median survival time; dose: 25.0 mg/kg/injection; schedule: Q01DX005 (ip); vehicle: saline; higher = longer survival
Toxic doses and inconclusive results are not listed.
measured.attribute: T/C

• COCCOC(C)C(/C=N/N=C(N)N)=N/N=C(N)N (centres undefined) = 103 % of control
• CC1CCCC2CCCOCN12 (centres undefined) = 99 % of control
• COc1cc2c(cc1OC)CN(C)C(C)C2 (centres undefined) = 106 % of control
• CCC1CCCCN1C (centres undefined) = 103 % of control
• CC1(C)OCC(C2OC3OC(C)(C)OC3/C2=N/NC(=O)c2cc3cc(OCc4ccccc4)ccc3[nH]2)O1 (centres undefined) = 88 % of control
• O=C1NC(=O)C2(CCC(O)C2)c2cc[n+]([O-])cc21 (centres undefined) = 105 % of control
• CN1C(=O)C(O)(C2=C3OCOC3=CC(=O)C2=O)c2ccccc21 (centres undefined) = 102 % of control
• O=C(O)Cc1ccc2c(c1O)C(=O)c1ccccc1C2=O = 104 % of control
• N#CC1(OC2OC(CO)C(O)C(O)C2O)C=CCC1 (centres undefined) = 101 % of control

* * *

Each item that follows carries a reported T/C.
# Test system: P388 leukemia ip, CD2F1 mice, survival T/C
# experiment.description: NCI In Vivo Anticancer Drug Screen. Data for tumor model P388 Leukemia (intraperitoneal) in CD2F1 (CDF1) mice
# setup.conditions: endpoint: median survival time; dose: 50.0 mg/kg/injection; schedule: Q01DX009 (ip); vehicle: saline with Tween-80; higher = longer survival
Toxic doses and inconclusive results are not listed.
measured.attribute: T/C

- CCCCCC(CN(C)C)C(=O)/C=C/c1ccc(Cl)cc1 (configuration not stated): 113 % of control
- NC(=S)N/N=C/c1ccc2c(c1)OCO2: 100 % of control
- CCOC(=N)Cc1ccccc1: 94 % of control
- COc1cc(OC)c(/C=C\c2nccc3ccccc23)c(OC)c1: 95 % of control
- CCN(CC)C(=O)C1CCCCN1Cc1c[nH]c2ccccc12 (configuration not stated): 101 % of control
- O=C(O)CC(=O)Nc1ccccc1S: 102 % of control
- CCOC(=O)C(Cc1ccccc1[N+](=O)[O-])(NC(C)=O)C(=O)OCC: 94 % of control
- CSc1ccc(NC(=O)ON2CCCCC2)cc1: 99 % of control
- CCOC(=O)CSc1sc(C(=O)OCC)c(N)c1C#N: 87 % of control
- O=C(O)c1cc(Br)cc(SSc2cc(Br)cc(C(=O)O)c2O)c1O: 96 % of control
- CC(=O)O.CC(=O)O.[Co+2].[NH-]C(CCC(N)=O)C(=O)O.[NH-]C(CCC(N)=O)C(=O)O (configuration not stated): 98 % of control
- O=C1/C(=C/c2ccccc2O)SC(=S)N1C1CC1: 100 % of control
